Examples of compounds with documented clearance follow.
experiment description: Pharmacokinetic study in mice
Format: in vivo
condition parameters: male, ICR, mouse, plasma, IV 2 mg/kg, read-out: Clint (hepatic clearance) (converted)
// units = mL/min/kg; emit number, no label

1) CN(Cc1cn(-c2ccccc2)nn1)c1nc(=O)c2cc(C(F)(F)F)cc([N+](=O)[O-])c2s1 | 27.8

With those in mind, consider the next compound.
q: Need clearance, item CN(Cc1nnc(-c2ccccc2)o1)c1nc(=O)c2cc(C(F)(F)F)cc([N+](=O)[O-])c2s1
a: 64

###

experiment description: physchem
condition parameters: pH 7.4, aqueous buffer, kinetic from dmso stock
value kind: solubility at 4 h

q: Need solubility at 4 h, item O=c1nc(N2CCN(CC3CCCCC3)CC2)sc2c([N+](=O)[O-])cc(C(F)(F)F)cc12 [PBTZ169, reference compound]
a: < 0.011 µg/mL
